- ASSAYED_SYSTEM: CYP2B6 (Homo sapiens)
- Construct: using mixed human liver microsomes and human primary hepatocytes as the in vitro; from tissue; host or cells: mixed (pooled) human liver microsomes
- Sequence (P20813 whole entry): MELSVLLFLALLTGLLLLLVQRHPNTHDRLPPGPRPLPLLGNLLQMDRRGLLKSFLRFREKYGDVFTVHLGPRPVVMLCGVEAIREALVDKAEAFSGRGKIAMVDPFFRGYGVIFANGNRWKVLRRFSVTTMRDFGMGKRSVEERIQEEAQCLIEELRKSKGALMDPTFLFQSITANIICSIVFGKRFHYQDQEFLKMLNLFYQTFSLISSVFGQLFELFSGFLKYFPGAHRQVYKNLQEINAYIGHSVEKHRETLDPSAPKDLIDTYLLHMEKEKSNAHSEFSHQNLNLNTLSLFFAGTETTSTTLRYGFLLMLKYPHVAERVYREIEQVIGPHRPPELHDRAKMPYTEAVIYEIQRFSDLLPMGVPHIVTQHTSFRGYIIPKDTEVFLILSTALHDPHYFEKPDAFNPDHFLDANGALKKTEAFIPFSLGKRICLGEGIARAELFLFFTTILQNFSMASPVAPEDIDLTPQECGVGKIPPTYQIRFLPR
- Assay type: in vitro ADME
- CONDITION_PARAMETERS: microsomes
pIC50: −log10 of the molar value. Counter-ions that a name gives are not always drawn.
READOUT_KIND: pIC50

COMPOUND | RECORDED_VALUE
N#CCNC(=O)c1ccc(-c2ccnc(Nc3ccc(N4CCOCC4)cc3)n2)cc1 [ZG0128, Jaktinib Dihydrochloride Monohydrate] | < 4.00

---

- ASSAYED_SYSTEM: CYP2C9 (Homo sapiens)
- Construct: using mixed human liver microsomes and human primary hepatocytes as the in vitro; from tissue; host or cells: mixed (pooled) human liver microsomes
- Sequence (P11712 whole entry): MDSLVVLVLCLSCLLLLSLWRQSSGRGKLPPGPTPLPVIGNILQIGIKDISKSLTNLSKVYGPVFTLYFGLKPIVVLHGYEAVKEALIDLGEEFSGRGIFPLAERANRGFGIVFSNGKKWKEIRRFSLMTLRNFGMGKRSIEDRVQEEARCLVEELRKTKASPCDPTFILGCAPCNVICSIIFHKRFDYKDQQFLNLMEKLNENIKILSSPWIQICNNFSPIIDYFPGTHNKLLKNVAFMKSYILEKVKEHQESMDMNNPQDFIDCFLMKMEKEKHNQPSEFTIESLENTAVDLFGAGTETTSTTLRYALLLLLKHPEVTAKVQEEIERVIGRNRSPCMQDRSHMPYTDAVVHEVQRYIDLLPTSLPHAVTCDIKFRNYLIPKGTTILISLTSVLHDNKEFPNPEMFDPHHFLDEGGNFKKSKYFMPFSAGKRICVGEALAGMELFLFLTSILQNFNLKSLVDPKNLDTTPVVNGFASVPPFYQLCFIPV
- Format: in vitro ADME
- CONDITION_PARAMETERS: microsomes
pIC50: −log10 of the molar value. Structures can show the parent of a compound that is named as a salt.

MOLECULE | pIC50
N#CCNC(=O)c1ccc(-c2ccnc(Nc3ccc(N4CCOCC4)cc3)n2)cc1 [ZG0128, Jaktinib Dihydrochloride Monohydrate] | < 4.00

---

- ASSAYED_SYSTEM: CYP3A4 (Homo sapiens, UniProt P08684)
- Construct: using mixed human liver microsomes and human primary hepatocytes as the in vitro; from tissue; host or cells: mixed (pooled) human liver microsomes
- Sequence (P08684 whole entry): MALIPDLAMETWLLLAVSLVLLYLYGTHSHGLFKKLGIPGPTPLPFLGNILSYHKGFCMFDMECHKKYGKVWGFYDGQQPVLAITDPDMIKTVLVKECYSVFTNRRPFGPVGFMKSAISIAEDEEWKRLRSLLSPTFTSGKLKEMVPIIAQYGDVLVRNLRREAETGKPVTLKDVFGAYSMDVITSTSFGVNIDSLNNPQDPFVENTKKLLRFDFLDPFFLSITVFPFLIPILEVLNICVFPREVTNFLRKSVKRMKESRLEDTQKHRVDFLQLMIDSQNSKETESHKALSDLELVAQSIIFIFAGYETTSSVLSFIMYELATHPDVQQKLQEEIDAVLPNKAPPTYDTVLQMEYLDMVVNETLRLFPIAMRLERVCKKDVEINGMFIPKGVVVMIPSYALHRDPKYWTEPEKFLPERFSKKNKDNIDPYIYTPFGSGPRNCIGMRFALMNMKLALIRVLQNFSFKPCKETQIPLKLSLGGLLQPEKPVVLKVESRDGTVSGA
- PROTOCOL_SUMMARY: CYP inhibition, mixed human liver microsomes
- Format: in vitro ADME
- CONDITION_PARAMETERS: midazolam 1'-hydroxylation; read-out: IC50
pIC50: −log10 of the molar value. Where a name gives a salt, the structure may show the parent alone.

MOLECULE | pIC50
N#CCNC(=O)c1ccc(-c2ccnc(Nc3ccc(N4CCOCC4)cc3)n2)cc1 [ZG0128, Jaktinib Dihydrochloride Monohydrate] | < 4.00

---

- ASSAYED_SYSTEM: CYP1A2 (Homo sapiens, UniProt P05177)
- Construct: using mixed human liver microsomes and human primary hepatocytes as the in vitro; from tissue; host or cells: mixed (pooled) human liver microsomes
- Sequence (P05177 whole entry): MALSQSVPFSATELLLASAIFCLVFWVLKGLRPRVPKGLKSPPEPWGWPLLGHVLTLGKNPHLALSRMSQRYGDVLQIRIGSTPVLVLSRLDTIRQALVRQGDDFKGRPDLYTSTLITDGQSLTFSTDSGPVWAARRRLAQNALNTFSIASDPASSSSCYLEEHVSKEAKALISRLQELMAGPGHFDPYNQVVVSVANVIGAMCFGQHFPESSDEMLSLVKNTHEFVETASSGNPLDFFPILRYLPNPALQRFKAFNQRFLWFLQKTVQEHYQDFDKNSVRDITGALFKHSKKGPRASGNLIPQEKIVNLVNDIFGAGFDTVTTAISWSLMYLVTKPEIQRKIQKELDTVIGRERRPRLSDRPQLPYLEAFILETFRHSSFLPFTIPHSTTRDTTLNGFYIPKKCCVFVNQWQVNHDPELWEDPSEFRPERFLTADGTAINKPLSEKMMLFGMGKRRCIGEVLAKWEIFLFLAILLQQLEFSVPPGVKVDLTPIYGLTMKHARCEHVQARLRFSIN
- Type: in vitro ADME
- CONDITION_PARAMETERS: microsomes
Counter-ions that a name gives are not always drawn.
READOUT_KIND: IC50

MOLECULE | READOUT_KIND | RECORDED_VALUE
N#CCNC(=O)c1ccc(-c2ccnc(Nc3ccc(N4CCOCC4)cc3)n2)cc1 [ZG0128, Jaktinib Dihydrochloride Monohydrate] | IC50 | > 100 µM

---

- ASSAYED_SYSTEM: CYP3A4 (Homo sapiens, UniProt P08684)
- Construct: using mixed human liver microsomes and human primary hepatocytes as the in vitro; from tissue; host or cells: mixed (pooled) human liver microsomes
- PROTOCOL_SUMMARY: CYP inhibition, mixed human liver microsomes
- Assay type: in vitro ADME
- CONDITION_PARAMETERS: microsomes
Structures can show the parent of a compound that is named as a salt.
READOUT_KIND: IC50

MOLECULE | ASSAYED_SYSTEM | RECORDED_VALUE
N#CCNC(=O)c1ccc(-c2ccnc(Nc3ccc(N4CCOCC4)cc3)n2)cc1 [ZG0128, Jaktinib Dihydrochloride Monohydrate] | CYP3A4 (Homo sapiens, UniProt P08684) | > 100 µM

---

- ASSAYED_SYSTEM: CYP2D6 (Homo sapiens)
- Construct: using mixed human liver microsomes and human primary hepatocytes as the in vitro; from tissue; host or cells: mixed (pooled) human liver microsomes
- Sequence (P10635 whole entry): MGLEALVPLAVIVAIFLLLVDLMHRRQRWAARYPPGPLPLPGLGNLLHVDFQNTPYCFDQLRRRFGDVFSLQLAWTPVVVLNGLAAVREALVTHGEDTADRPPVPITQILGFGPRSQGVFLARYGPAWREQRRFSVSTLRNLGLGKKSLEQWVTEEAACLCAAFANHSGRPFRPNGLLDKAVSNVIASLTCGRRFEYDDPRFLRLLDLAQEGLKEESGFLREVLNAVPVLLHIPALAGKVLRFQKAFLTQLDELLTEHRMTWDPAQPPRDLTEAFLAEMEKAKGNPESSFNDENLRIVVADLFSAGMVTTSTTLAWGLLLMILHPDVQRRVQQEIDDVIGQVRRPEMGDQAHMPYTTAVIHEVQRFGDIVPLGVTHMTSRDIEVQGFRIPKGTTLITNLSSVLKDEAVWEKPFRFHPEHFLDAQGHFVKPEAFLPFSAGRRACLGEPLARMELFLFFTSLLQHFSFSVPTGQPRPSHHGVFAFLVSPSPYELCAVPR
- Format: in vitro ADME
- CONDITION_PARAMETERS: microsomes
Where a name gives a salt, the structure may show the parent alone.

COMPOUND | IC50
N#CCNC(=O)c1ccc(-c2ccnc(Nc3ccc(N4CCOCC4)cc3)n2)cc1 [ZG0128, Jaktinib Dihydrochloride Monohydrate] | > 100 µM
